assay: stimulators of insulin release from INS-1E, primary screen, cell-based, 5 mM glucose, NPC library (AID 1117329); settings: rat INS-1E insulin secretion, at 10 µM, active compounds read high; note: reference of the scale not given here
ENDPOINT LABEL: insulin secretion stimulation (%)

In [3]: df
Out[3]:
                                    molecule  unit_symbol  test_result
 0                CC(=O)OCC(COC(C)=O)OC(C)=O            %          0.7
 1    Cc1cccc(C)c1OCC(C)N (stereo not given)            %          4.3
 2  CC1(C)O[C@@H]2C[C@H]3[C@@H]4C[C@H](F)C5=CC(=O)C=C[C@]5(C)[C@@]4(F)[C@@H](O)C[C@]3(C)[C@]2(C(=O)CO)O1            %          0.7
 3  CC1(C)S[C@@H]2[C@H](N=CN3CCCCCC3)C(=O)N2[C@H]1C(=O)O            %         -1.6
 4  OC[C@H]1O[C@@H](O[C@@H]2[C@@H](CO)O[C@](O)(CO)[C@H]2O)[C@H](O)[C@@H](O)[C@H]1O            %          0.5
 5              C[C@](N)(Cc1ccc(O)cc1)C(=O)O            %         -0.1
 6           c1ccc(CN(CC2=NCCN2)c2ccccc2)cc1            %         11.3
 7           COc1ccc(C2C(=O)c3ccccc3C2=O)cc1            %          0.7
 8                       NC(N)=NCCN1CCCCCCC1            %         -1.2
 9                       CCOC(=O)c1ccc(N)cc1            %           -1
10  CC(C)(C)NC(=O)[C@H]1CC[C@H]2[C@@H]3CC[C@H]4NC(=O)C=C[C@]4(C)[C@H]3CC[C@]12C            %          0.6
11  C=CCSCC1Nc2cc(Cl)c(S(N)(=O)=O)cc2S(=O)(=O)N1 (stereo not given)            %         -0.2
12     NCC1CCC(C(=O)O)CC1 (stereo not given)            %         -1.6
13                         Cc1cc(O)cc(C)c1Cl            %            2
14            CCCOc1ccc2nc(NC(=O)OC)[nH]c2c1            %          1.2
15  CC(C)(C)C(O)/C=C/c1ccc2c(c1)OCO2 (stereo not given)            %         -1.1
16  COc1ccccc1N1CCN(CC(O)COc2cccc3ccccc23)CC1 (stereo not given)            %          0.4
17  CCCCC1(COC(=O)CCC(=O)O)C(=O)N(c2ccccc2)N(c2ccccc2)C1=O            %          2.3
18  C[C@@H]1CN(CCCn2c3ccccc3c3ccccc32)C[C@H](C)N1            %         16.2
19  CC(=O)Nc1ccc(S(=O)(=O)Nc2ccc([N+](=O)[O-])cc2)cc1            %         -0.2
